B1: Azoarcus group I ribozyme (parent)
chain: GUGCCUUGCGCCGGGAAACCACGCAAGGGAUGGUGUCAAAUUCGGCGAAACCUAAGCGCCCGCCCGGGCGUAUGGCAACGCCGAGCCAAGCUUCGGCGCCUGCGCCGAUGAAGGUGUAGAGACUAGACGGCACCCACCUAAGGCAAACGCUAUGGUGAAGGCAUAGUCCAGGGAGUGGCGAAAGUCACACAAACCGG

variants of: B1; assay: reverse-splicing fitness (ratio to wild type); higher = more active; in vitro selection; Mg2+ level not given
Property: reverse-splicing fitness
Lab note: write the figure by itself, no unit.

Would you mind telling me what reverse-splicing fitness value was observed for C82U A111C A120C A145U C150G U176A ?
0.00578

// lookup reverse-splicing fitness for C82A A120G A145C C150G C169U U176A
0.0158

Consider the variant shown here: C82U A145U C150A U176G What is its recorded reverse-splicing fitness?
0.0221

Item C82U A111C C169U U176A has what recorded reverse-splicing fitness?
0.0179

Item under review: C82G C150G C169A U176A . Reported reverse-splicing fitness?
0.0112

# reverse-splicing fitness lookup, item C82A A111G A145C C150U C169A U176C
0.00698

Would you mind telling me what reverse-splicing fitness value was observed for C82G A111G A120C C150G C169A U176C ?
0.016

What does the record list as reverse-splicing fitness for C82U A111C A145C C169G ?
0.00983

Would you kindly share the measured reverse-splicing fitness for C82U A111C A145U C150A C169G U176G ?
0.00796

Requested read-out: reverse-splicing fitness. Entry: A111G A120C A145U C150A U176G
0.024

Name the reported reverse-splicing fitness value associated with the variant C82G A111G A120G U176G
0.00869
